- tested_system: human Y2 receptor (human) (UniProt P49146)
- Sequence (P49146 whole entry): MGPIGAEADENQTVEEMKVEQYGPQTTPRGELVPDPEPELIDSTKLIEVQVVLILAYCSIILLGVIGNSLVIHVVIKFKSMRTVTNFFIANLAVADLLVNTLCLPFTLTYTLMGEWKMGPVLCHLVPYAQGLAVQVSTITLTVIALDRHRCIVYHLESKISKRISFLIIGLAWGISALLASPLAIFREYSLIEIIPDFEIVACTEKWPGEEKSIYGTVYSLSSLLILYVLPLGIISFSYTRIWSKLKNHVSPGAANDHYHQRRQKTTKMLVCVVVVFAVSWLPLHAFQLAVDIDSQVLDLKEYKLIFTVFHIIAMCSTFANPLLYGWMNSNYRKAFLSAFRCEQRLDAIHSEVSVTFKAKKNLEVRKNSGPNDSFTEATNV
- test_description: cell-based or functional assay
Non-standard residues stand in square brackets, D forms with d. Dap(CONH2) = NC(=O)NC[C@H](N)C(=O)O; Cha = N[C@@H](CC1CCCCC1)C(=O)O; dIva = CC[C@@](C)(N)C(=O)O; Aib = CC(C)(N)C(=O)O
Listing: GBA EC50 Ratio (vs PYY(3-36)), [35S]GTPγS of selected binders
assay_metric: GBA EC50 Ratio (vs PYY(3-36)), [35S]GTPγS

Ac-S[dP]R[Dap(CONH2)][Cha][Cha]NL[Aib]TRQR[Cha]-NH2 (SMILES CC(=O)N[C@@H](CO)C(=O)N1CCC[C@@H]1C(=O)N[C@@H](CCCNC(=N)N)C(=O)N[C@@H](CNC(N)=O)C(=O)N[C@@H](CC1CCCCC1)C(=O)N[C@@H](CC1CCCCC1)C(=O)N[C@@H](CC(N)=O)C(=O)N[C@@H](CC(C)C)C(=O)NC(C)(C)C(=O)N[C@H](C(=O)N[C@@H](CCCNC(=N)N)C(=O)N[C@@H](CCC(N)=O)C(=O)N[C@@H](CCCNC(=N)N)C(=O)N[C@@H](CC1CCCCC1)C(N)=O)[C@@H](C)O) [Ac-[D-Pro24, Alb26, Cha27,28,36, Aib31]-PYY(23-36)]    2.2
Ac-S[dP][dIva]H[Cha][Cha]NL[Aib]TRQR[Cha]-NH2 (SMILES CC[C@@](C)(NC(=O)[C@H]1CCCN1C(=O)[C@H](CO)NC(C)=O)C(=O)N[C@@H](Cc1c[nH]cn1)C(=O)N[C@@H](CC1CCCCC1)C(=O)N[C@@H](CC1CCCCC1)C(=O)N[C@@H](CC(N)=O)C(=O)N[C@@H](CC(C)C)C(=O)NC(C)(C)C(=O)N[C@H](C(=O)N[C@@H](CCCNC(=N)N)C(=O)N[C@@H](CCC(N)=O)C(=O)N[C@@H](CCCNC(=N)N)C(=O)N[C@@H](CC1CCCCC1)C(N)=O)[C@@H](C)O) [Ac-[D-Pro24, D-Iva25, Cha27,28,36, Aib31]-PYY(23-36)]    11
